- SYSTEM_NAME: Interleukin-8 receptors, CXCR1/CXCR2 (Homo sapiens, UniProt P25025+P25024)
- Sequence (P25025 whole entry): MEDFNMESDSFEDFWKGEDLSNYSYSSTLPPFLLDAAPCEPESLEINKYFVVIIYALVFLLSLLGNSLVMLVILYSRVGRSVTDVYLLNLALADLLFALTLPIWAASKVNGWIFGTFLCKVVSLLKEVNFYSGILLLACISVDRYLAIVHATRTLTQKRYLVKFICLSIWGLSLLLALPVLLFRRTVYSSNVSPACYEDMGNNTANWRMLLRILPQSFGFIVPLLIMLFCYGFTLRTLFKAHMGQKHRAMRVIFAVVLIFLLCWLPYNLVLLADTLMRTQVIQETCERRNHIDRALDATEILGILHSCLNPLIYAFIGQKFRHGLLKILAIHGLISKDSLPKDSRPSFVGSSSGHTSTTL
- Sequence (P25024 whole entry): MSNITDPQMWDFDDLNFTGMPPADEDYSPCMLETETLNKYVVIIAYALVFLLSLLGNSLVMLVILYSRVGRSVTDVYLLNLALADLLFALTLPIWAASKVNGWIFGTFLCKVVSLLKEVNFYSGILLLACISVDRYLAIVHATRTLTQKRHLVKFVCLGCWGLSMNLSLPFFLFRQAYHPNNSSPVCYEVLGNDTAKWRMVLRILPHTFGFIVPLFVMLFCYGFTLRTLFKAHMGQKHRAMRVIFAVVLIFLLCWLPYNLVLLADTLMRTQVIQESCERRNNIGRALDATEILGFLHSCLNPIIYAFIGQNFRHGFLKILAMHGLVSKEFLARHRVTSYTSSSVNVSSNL
- ASSAY_SUMMARY: Antagonist activity at CXCR1/CXCR2 in human PMN cells assessed as inhibition of IL8-mediated myeloperoxidase release
- Format: functional, cell-based
MEASURE: IC50 (nM)

- MOLECULE: "CC[C@@H](Nc1n[s+]([O-])nc1Nc1cccc(C(=O)N(C)C)c1O)c1cc(C(C)C)co1 (some centres undefined)"
  MEASUREMENT_UNITS: "nM"
  READING: 15
- MOLECULE: "CC[C@@H](Nc1n[s+]([O-])nc1Nc1cccc(C(=O)N(C)C)c1O)c1ccc(C)o1 (some centres undefined)"
  MEASUREMENT_UNITS: "nM"
  READING: 539
- MOLECULE: "CN(C)C(=O)c1cccc(Nc2n[s+]([O-])nc2N[C@@H](c2ccco2)C(C)(C)C)c1O (some centres undefined)"
  MEASUREMENT_UNITS: "nM"
  READING: 20
- MOLECULE: "CN(C)C(=O)c1cccc(Nc2n[s+]([O-])nc2N[C@@H](c2ccccc2)C(C)(C)C)c1O (some centres undefined)"
  MEASUREMENT_UNITS: "nM"
  READING: 142

I. CN(C)C(=O)c1cccc(Nc2n[s+]([O-])nc2N[C@@H](c2ccco2)C2(C)CC2)c1O (some centres undefined)
II. Cc1ccc([C@H](Nc2n[s+]([O-])nc2Nc2cccc(C(=O)N(C)C)c2O)C(C)(C)C)o1 (some centres undefined)
III. C[C@H](Nc1n[s+]([O-])nc1Nc1cccc(C(=O)N(C)C)c1O)C(C)(C)C (some centres undefined)
IV. CC[C@@H](NC1=NS(=O)(=O)N=C1Nc1cccc(C(=O)N(C)C)c1O)c1ccccc1
Put the molecules in ascending order of IC50. Labels, ranked as asked.
II, I, III, IV
(II: 80 nM, I: 400 nM, III: 684 nM, IV: 8990 nM)

====

- SYSTEM_NAME: C-X-C chemokine receptor type 2 (Homo sapiens)
- Sequence (P25025 whole entry): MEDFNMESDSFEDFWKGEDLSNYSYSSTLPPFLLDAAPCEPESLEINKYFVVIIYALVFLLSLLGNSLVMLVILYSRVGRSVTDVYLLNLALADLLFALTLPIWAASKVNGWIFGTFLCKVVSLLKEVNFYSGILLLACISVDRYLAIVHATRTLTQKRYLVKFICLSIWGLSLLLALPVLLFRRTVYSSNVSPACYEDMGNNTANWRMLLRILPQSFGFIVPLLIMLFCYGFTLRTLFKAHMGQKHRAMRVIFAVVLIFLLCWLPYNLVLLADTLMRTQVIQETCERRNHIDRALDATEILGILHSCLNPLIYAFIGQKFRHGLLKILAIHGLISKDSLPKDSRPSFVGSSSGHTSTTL
pKi: −log10 of the molar value.
MEASURE: pKi

Here's what some known entries look like.
- COMPOUND: "CCC(C)(C)[C@@H](NC1=NS(=O)(=O)N=C1Nc1cccc(C(=O)N(C)C)c1O)c1ccco1"
  READING: 7.80
- COMPOUND: "CN(C)C(=O)c1cccc(NC2=NS(=O)(=O)N=C2N[C@@H](c2ccc(Cl)o2)C(C)(C)C)c1O"
  READING: 8.05
- COMPOUND: "Cc1ccc([C@H](Nc2n[s+]([O-])nc2Nc2cccc(C(=O)N(C)C)c2O)C(C)(C)C)o1 (stereo partly specified)"
  READING: 8.30
- COMPOUND: "CN(C)C(=O)c1cccc(NC2=NS(=O)(=O)N=C2N[C@@H](c2ccc3c(c2)OCO3)C(C)(C)C)c1O"
  READING: 8.33

A. CN(C)C(=O)c1cccc(Nc2n[s+]([O-])nc2NCc2ccc3c(c2)OCO3)c1O (stereo unspecified)
B. CC(C)[C@@H](Nc1n[s+]([O-])nc1Nc1cccc(C(=O)N(C)C)c1O)c1cccc(F)c1 (stereo partly specified)
Hi, I'm comparing A with B and wondering which one has the bigger number for pKi. Any idea? Identify your pick by its label.
B

====

- SYSTEM_NAME: Interleukin-8 receptors, CXCR1/CXCR2 (Homo sapiens, UniProt P25025+P25024)
- ASSAY_SUMMARY: Antagonist activity at CXCR1/CXCR2 in human PMN cells assessed as inhibition of GROalpha-mediated myeloperoxidase release
- Assay type: functional, cell-based
MEASURE: IC50 (µM)

// solved cases for IC50 follow
- COMPOUND: "CC[C@@H](Nc1n[s+]([O-])nc1Nc1cccc(C(=O)N(C)C)c1O)c1ccc(C)o1 (some centres undefined)"
  IC50, µM: 0.133
- COMPOUND: "CN(C)C(=O)c1cccc(Nc2n[s+]([O-])nc2N[C@@H](c2ccco2)C2(C)CC2)c1O (some centres undefined)"
  IC50, µM: 0.132
- COMPOUND: "C[C@H](Nc1n[s+]([O-])nc1Nc1cccc(C(=O)N(C)C)c1O)C(C)(C)C (some centres undefined)"
  IC50, µM: 0.038
- COMPOUND: "Cc1cc([C@H](Nc2n[s+]([O-])nc2Nc2cccc(C(=O)N(C)C)c2O)C(C)C)oc1C (some centres undefined)"
  IC50, µM: 0.013
- COMPOUND: "CN(C)C(=O)c1cccc(Nc2n[s+]([O-])nc2N[C@@H](c2ccccc2)C(C)(C)C)c1O (some centres undefined)"
  IC50, µM: 0.028
- COMPOUND: "CC[C@@H](Nc1n[s+]([O-])nc1Nc1cccc(C(=O)N(C)C)c1O)c1cc(C(C)C)co1 (some centres undefined)"
  IC50, µM: 0.008

A. Cc1ccc([C@H](Nc2n[s+]([O-])nc2Nc2cccc(C(=O)N(C)C)c2O)C(C)(C)C)o1 (some centres undefined)
B. CC[C@@H](Nc1n[s+]([O-])nc1Nc1cccc(C(=O)N(C)C)c1O)c1ccccc1 (some centres undefined)
Between A and B , whose recorded IC50 is greater? Indicate which entry you chose by stating its label.
B

====

- SYSTEM_NAME: Interleukin-8 receptors, CXCR1/CXCR2 (Homo sapiens) (UniProt P25025+P25024)
- ASSAY_SUMMARY: Antagonist activity at CXCR1/CXCR2 in human PMN cells assessed as inhibition of GROalpha-mediated myeloperoxidase release at 1 uM
- Type: functional, cell-based
- Parameters: scale not given: the % may be the effect or the level left
MEASURE: Activity (%)

- SMILES_INPUT: "Cc1ccc([C@H](NC2=NS(=O)(=O)N=C2Nc2cccc(C(=O)N(C)C)c2O)C2(C)CC2)o1"
  MEASUREMENT_UNITS: "%"
  Activity: -11

1. CN(C)C(=O)c1cccc(NC2=NS(=O)(=O)N=C2N[C@@H](c2ccc3c(c2)OCCO3)C(C)(C)C)c1O
2. CC[C@@H](NC1=NS(=O)(=O)N=C1Nc1cccc(C(=O)N(C)C)c1O)c1ccccc1
3. CCC(C)(C)[C@@H](NC1=NS(=O)(=O)N=C1Nc1cccc(C(=O)N(C)C)c1O)c1ccco1
4. CN(C)C(=O)c1cccc(NC2=NS(=O)(=O)N=C2N[C@@H](c2ccco2)C(C)(C)C)c1O
List items by Activity in falling order. To answer, arrange all of the labels according to the requested order.
4, 1, 3, 2
